Test system: TRPC4 beta (transient receptor potential cation channel C4), mouse
Test: potentiation of DAMGO EC20 TRPC4 response – cell-based, Fluo-4, HEK293 TRPC4beta/mu-opioid, confirmation (AID 2555)
Settings: DAMGO EC20, Fluo-4 calcium flux, at 10 µM
Calls of active or inactive are those of the source.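 Rule for the calls: active = primary screen hit whose calcium fluorescence ratio, in both repeats, exceeds the weak agonist control mean by 3 SD; inactive = the rest.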
Bench note: report the call from active, inactive

Recorded test call requested for Cc1cc(C)c(S(=O)(=O)c2ccccc2C)c(OCC(C)(C)C)n1 inactive

For COc1cccc(C(CNC(=O)C(c2ccccc2)c2ccccc2)N(C)C)c1 (configuration not stated) , which call appears in the assay record? inactive

Outcome? COc1cccc(/C=C2\SC(=S)N(NS(=O)(=O)c3ccc(C)cc3)C2=O)c1OC inactive

How did this test come out for S=C(NCCc1cnc[nH]1)NC1CCCC1 ? inactive

Outcome logged for N#Cc1c(-c2cccs2)nc(SCc2ccc(Cl)cc2)[nH]c1=O in this assay: active

Can you look up the reported call for Cc1ccn2c(-c3csc(NCc4ccco4)n3)c(C)nc2c1 for me? inactive

Which outcome did this test record for the compound Cc1cccc2nc(CSc3ccc(Cl)cc3)cn12 ? inactive

In this assay, the call recorded for COCCn1c(SCC(=O)c2ccccc2)nc2ccccc2c1=O was what? inactive

Query: recorded result category for CCn1c(N2CCN(C(=S)NCC(C)C)CC2)nc2ccccc21 in this test inactive

Recorded test outcome, item Cc1oc(-c2cccc(F)c2)nc1CN(Cc1ccccc1)C[C@@H]1CCC(=O)N1 inactive

Which result was noted for this compound in the test: CN1CCN(c2nc3c(c(=O)n(C)c(=O)n3C)n2CC(=O)C23CC4CC(CC(C4)C2)C3)CC1 inactive

Called result for CCN(CC)CCNc1ccc(Cl)cc1[N+](=O)[O-] inactive

GET /call?item= O=C(Nc1ccccc1N1CCN(C(=O)c2ccc(Cl)cc2)CC1)c1cccc([N+](=O)[O-])c1 returns the recorded outcome of this test. inactive

What outcome does the record of this test show for NS(=O)(=O)c1ccc(Nc2nc(-c3ccc(O)cc3O)cs2)cc1 ? inactive

Answer briefly: the call reported for CCOC(=O)C1(Cc2ccccc2)CCN(Cc2cccn2-c2cccnc2)CC1 in this assay. inactive

Hello, I am checking results. What call was entered for N=c1c(C(=O)NCC2CCCO2)cc2c(=O)n3ccccc3nc2n1Cc1ccccc1Cl (configuration not stated) ? active

Just curious, what result did CCCCN(CC)CCCNC(=O)Cn1nc(Cc2cccnc2)c2ccccc2c1=O get here? inactive

Look up the recorded call for CC(=O)c1ccc(OCC(O)CN2CCN(S(=O)(=O)c3c(C)cc(C)cc3C)CC2)cc1 (configuration not stated) in this test. active

// return assay outcome for O=C(Cc1cccc2ccccc12)Nc1ccc(Br)cc1C(=O)O inactive

I'd appreciate the recorded outcome for O=C(C1CCN(S(=O)(=O)c2cccnc2)CC1)N1CCN(c2ccc(Cl)cc2)CC1 from this test. inactive

Hi, do you know how Cc1cc(C)c(C(=O)c2ccc(C(=O)N3CCCCC3)cc2)c(C)c1 came out in this test? inactive

Hi, do you know how Cc1cc(-c2ccc(C)c(S(=O)(=O)N3CCN(c4ccccn4)CC3)c2)on1 came out in this test? active

Could you kindly confirm the outcome this assay logged for COc1ccc(C2C(O)C(c3c[nH]c4ccccc34)=NN2C(=O)CCl)cc1 (configuration not stated) ? active

Give the logged outcome of this assay for the following compound: c1ccc(NC(=NCc2ccco2)c2ccccc2)cc1 inactive

Recorded call for COc1ccc(CN(C2CCCCC2C)S(=O)(=O)c2ccc(S(=O)(=O)N(C)C)cc2)cc1OC (configuration not stated) ? active

Please share the test call associated with CCN(CC(=O)NCc1ccc(Cl)cc1)CC(=O)NC1(C#N)CCCC1 . inactive

Outcome? CC[n+]1c(/C=C/Nc2ccccc2)oc2ccc(OC)cc21 inactive

Hi team, can someone confirm the assay call for CCOC(=O)C1=C(C)N(C)C(=S)NC1c1cccc(Cl)c1Cl (configuration not stated) ? active

Just curious, what result did COc1ccc(Nc2nc(N)c3ccccc3n2)c(OC)c1 get here? inactive

Entry CN1CCN(c2nc(-c3cccnc3)nc3scc(-c4ccccc4)c23)CC1 : call = ? inactive

Short answer needed: outcome of this test for CC1CCN(C(C)C(=O)Nc2ccccc2-c2ccccc2)CC1 (configuration not stated) ? inactive

Which outcome was entered for the compound Cc1cccc(NC(=O)c2cc([N+](=O)[O-])ccc2N2CCN(C)CC2)c1 in this test? inactive

Hi, sorry to bother you, what did the test record for CC(C)CN(C(=O)COC(=O)COc1ccc2ccccc2c1)c1c(N)n(Cc2ccccc2)c(=O)[nH]c1=O ? inactive

Each compound tested received a call. Report the one for O=C(NCCc1ccccc1)c1cnc2ccccc2n1 . active

Any idea what this test logged for COc1ccc(CCNC(=O)Cn2cnc3c(cnn3C(C)(C)C)c2=O)cc1OC ? inactive

For this compound, state the assay outcome: Cc1[nH]c2ccc(C(=O)OC(C)C(=O)N(C)c3ccccc3)cc2c1C (configuration not stated) inactive

I'd appreciate the recorded outcome for Cc1oc(-c2ccc(Cl)cc2)nc1CS(=O)CC(=O)NCCCN(C)C1CCCCC1 (configuration not stated) from this test. inactive

Recorded test outcome, item CCCN(C(=O)COC(=O)C12CCC(=O)N1c1ccccc1S2)c1c(N)n(Cc2ccccc2)c(=O)[nH]c1=O (configuration not stated) inactive

Hi team, can someone confirm the assay call for CC1(C(=O)OCc2cc(=O)n3cc(Br)ccc3n2)CC1(Cl)Cl (configuration not stated) ? active

Assay outcome for O=C(Nc1cccc(Cl)c1)N1CCN(C/C=C/c2ccccc2)CC1 : what was it? inactive

Dear colleague, could you share the recorded outcome for NC(=O)c1nsc(C(=O)N(Cc2ccco2)C(C(=O)NCc2ccc(F)cc2)c2ccc(O)cc2)c1N (configuration not stated) when you have a moment? inactive

Test call, this compound: O=C(CSc1nc(=O)n(CCN2CCOCC2)c2c1CCC2)Nc1ccc(OC(F)(F)F)cc1 inactive
